Target: Nonstructural protein 3 (Zika virus)
Sequence (A0A024AXB9 whole entry, the tested form may be a part): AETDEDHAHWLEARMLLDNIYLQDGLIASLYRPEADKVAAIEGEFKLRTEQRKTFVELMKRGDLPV
Assay: Inhibition of N-terminal His6-tagged Zika virus NS2B (49 to 95 residues) - NS3 (1 to 170 residues) protease domain expressed in Escherichia coli Bl21(DE3) using Bz-Nle-Lys-Lys-Arg-AMC as substrate preincubated for 10 mins followed by substrate addition measured after 10 mins by fluorescence based assay
MEASURED METRIC: pIC50
# reply with the number alone; pIC50 is -log10 of concentration in mol/L

Retrieve pIC50 measured for CC(C)C[C@H]1C(=O)N2CCC[C@H]2[C@]2(O)O[C@](NC(=O)[C@@H]3C=C4c5cccc6[nH]c(Br)c(c56)C[C@H]4N(C)C3)(C(C)C)C(=O)N12 [BROMOCRIPTINE] and print it.
4.88

* * *

This listing pairs compounds with measured selectivity ratio.
Assay: Selectivity index, ratio of CC50 for cytotoxicity against human HuH7 cells to EC50 for antiviral activity against H/PF/2013 Zika virus infected in human HuH7 cells
Type: toxicity, cell-based
Conditions: HuH7 cells, read-out: Ratio CC50/EC50
Form: value (number only, do not type unit).

Give the measured selectivity ratio for COc1cccc(S(=O)(=O)n2c3ccc(-c4cccc(C#N)c4)cc3c3cc(-c4cccc(C(=N)N)c4)ccc32)c1
2.37

New cases:
Please indicate selectivity ratio recorded for COc1cccc(Cn2c3ccc(Br)cc3c3cc(-c4cccc(C(=N)N)c4)ccc32)c1
2.3

* * *

Molecular target: Nonstructural protein 3 (Zika virus)
Assay: Inhibition of N-terminal unlinked Zika virus NS2B (45 to 96 residues) - NS3 (1 to 177 residues) protease domain expressed in Escherichia coli Bl21(DE3) using Bz-nKRR-AMC as substrate preincubated for 15 mins followed by substrate addition and measured by fluorescence based assay
Measured IC50, listed per entry.
Unit nM implied. Number only.

Identify measured IC50 associated with N#Cc1cccc(-c2ccc3c(c2)c2cc(-c4cccc(C#N)c4)ccc2n3Cc2cccc(C(=N)N)c2)c1
14900

Give me measured IC50, please, for this compound: Cn1c2ccc(-c3cccc(C#N)c3)cc2c2cc(-c3cccc(C(=N)N)c3)ccc21
1700

Determine from records and report IC50 for N=C(N)c1cccc(Cn2c3ccc(Br)cc3c3cc(Br)ccc32)c1
25600

Note down IC50 recorded for COc1cccc(Cn2c3ccc(-c4cccc(C#N)c4)cc3c3cc(-c4cccc(C(=N)N)c4)ccc32)c1
1910

Using known records, supply IC50 for COc1cccc(Cn2c3ccc(Br)cc3c3cc(-c4cccc(C(=N)N)c4)ccc32)c1
4040

***
Determine its reported IC50: COc1cccc(S(=O)(=O)n2c3ccc(-c4cccc(C(=N)N)c4)cc3c3cc(-c4cccc(C(=N)N)c4)ccc32)c1
990
